Data origin: patent US20100056623A1

Listed next: entries and their corresponding change of purity (%).
# RUN DESCRIPTION: Chemical stability test (HPLC purity)
# DETAILS: initial vs 1 month at 40±2° C., 75±5% relative humidity

Worked examples, 6 compounds total:
>>> result("CO[C@@H]1[C@H](OC(=O)/C=C/c2cccc(NCCO)c2)CC[C@]2(CO2)[C@H]1[C@@]1(C)O[C@@H]1CC=C(C)C [Example 6]")
"0.5%"
>>> result("CO[C@@H]1[C@H](OC(=O)/C=C/c2ccc(OCCO)cc2)CC[C@]2(CO2)[C@H]1[C@@]1(C)O[C@@H]1CC=C(C)C [Example 1]")
"0%"
>>> result("CO[C@@H]1[C@H](OC(=O)/C=C/c2ccc(NCCO)cc2)CC[C@]2(CO2)[C@H]1[C@@]1(C)O[C@@H]1CC=C(C)C [Example 5]")
"0.7%"
>>> result("COc1cc(/C=C/C(=O)O[C@@H]2CC[C@]3(CO3)[C@@H]([C@@]3(C)O[C@@H]3CC=C(C)C)[C@@H]2OC)ccc1OCCO [Example 3]")
"0.1%"
>>> result("COc1cc(C=CC(=O)OC2CCC3(CO3)C(C3(C)OC3CC=C(C)C)C2OC)cc(OC)c1OC (stereo not shown) [CKD-731, O-(3,4,5-trimethoxycinnamoyl)fumagillol, reference compound]")
"1.8%"
>>> result("COc1ccc(/C=C/C(=O)O[C@@H]2CC[C@]3(CO3)[C@@H]([C@@]3(C)O[C@@H]3CC=C(C)C)[C@@H]2OC)cc1OCCO [Example 4]")
"0.2%"

Now for a further compound.
Summary for this compound, CO[C@@H]1[C@H](OC(=O)NC(=O)CCl)CC[C@]2(CO2)[C@H]1[C@@]1(C)O[C@@H]1CC=C(C)C [TNP-470, O-chloroacetylcarbamoylfumagillol, reference compound] : change of purity (%) is 2.2%

* * *

# RUN DESCRIPTION: Solubility test
# Format: physicochemical
# DETAILS: methanol, ordinary temperature
PROPERTY LABEL: The amount of solvent to dissolve 1 g of the compounds (ml), methanol (mL)
Could you give me the number in mL? Just the number is fine.

Worked examples, 6 molecules total:
>>> recorded_number("CO[C@@H]1[C@H](OC(=O)/C=C/c2ccc(OCCOCCO)cc2)CC[C@]2(CO2)[C@H]1[C@@]1(C)O[C@@H]1CC=C(C)C")
35
>>> recorded_number("COc1ccc(/C=C/C(=O)O[C@@H]2CC[C@]3(CO3)[C@@H]([C@@]3(C)O[C@@H]3CC=C(C)C)[C@@H]2OC)cc1OCCO")
49
>>> recorded_number("CO[C@@H]1[C@H](OC(=O)C=Cc2ccc(OCCN(C)C)cc2)CC[C@]2(CO2)[C@H]1[C@@]1(C)O[C@@H]1CC=C(C)C [CKD-732, reference compound]")
197
>>> recorded_number("CO[C@@H]1[C@H](OC(=O)/C=C/c2ccc(Cl)c(NCCO)c2)CC[C@]2(CO2)[C@H]1[C@@]1(C)O[C@@H]1CC=C(C)C")
42
>>> recorded_number("CO[C@@H]1[C@H](OC(=O)/C=C/c2cccc(NCCO)c2)CC[C@]2(CO2)[C@H]1[C@@]1(C)O[C@@H]1CC=C(C)C")
31
>>> recorded_number("CO[C@@H]1[C@H](OC(=O)/C=C/c2ccc(OCCOCCOCCO)cc2)CC[C@]2(CO2)[C@H]1[C@@]1(C)O[C@@H]1CC=C(C)C")
30

Summary for this molecule, CO[C@@H]1[C@H](OC(=O)/C=C/c2ccc(OCCO)cc2)CC[C@]2(CO2)[C@H]1[C@@]1(C)O[C@@H]1CC=C(C)C : The amount of solvent to dissolve 1 g of the compounds (ml), methanol is 34

Summary for this molecule, CO[C@@H]1[C@H](OC(=O)/C=C/c2ccc(OCCCCO)cc2)CC[C@]2(CO2)[C@H]1[C@@]1(C)O[C@@H]1CC=C(C)C : The amount of solvent to dissolve 1 g of the compounds (ml), methanol is 70

Summary for this molecule, CO[C@@H]1[C@H](OC(=O)NC(=O)CCl)CC[C@]2(CO2)[C@H]1[C@@]1(C)O[C@@H]1CC=C(C)C [TNP-470, O-chloroacetylcarbamoylfumagillol, reference compound] : The amount of solvent to dissolve 1 g of the compounds (ml), methanol is 208

Summary for this molecule, COc1cc(/C=C/C(=O)O[C@@H]2CC[C@]3(CO3)[C@@H]([C@@]3(C)O[C@@H]3CC=C(C)C)[C@@H]2OC)cc(OC)c1OCCO : The amount of solvent to dissolve 1 g of the compounds (ml), methanol is 37

* * *

# RUN DESCRIPTION: Solubility test
# Type: physicochemical
# DETAILS: demineralized water, ordinary temperature
PROPERTY LABEL: The amount of solvent to dissolve 1 g of the compounds (ml), demineralized water (mL)
Could you give me the number in mL? Just the number is fine.

>>> recorded_number("CO[C@@H]1[C@H](OC(=O)C=Cc2ccc(OCCN(C)C)cc2)CC[C@]2(CO2)[C@H]1[C@@]1(C)O[C@@H]1CC=C(C)C [CKD-732, reference compound]")
1100

Summary for this compound, CO[C@@H]1[C@H](OC(=O)/C=C/c2ccc(OCCOCCO)cc2)CC[C@]2(CO2)[C@H]1[C@@]1(C)O[C@@H]1CC=C(C)C : The amount of solvent to dissolve 1 g of the compounds (ml), demineralized water is 126

Summary for this compound, CO[C@@H]1[C@H](OC(=O)/C=C/c2ccc(OCCO)cc2)CC[C@]2(CO2)[C@H]1[C@@]1(C)O[C@@H]1CC=C(C)C : The amount of solvent to dissolve 1 g of the compounds (ml), demineralized water is 135

Summary for this compound, CO[C@@H]1[C@H](OC(=O)/C=C/c2cccc(NCCO)c2)CC[C@]2(CO2)[C@H]1[C@@]1(C)O[C@@H]1CC=C(C)C : The amount of solvent to dissolve 1 g of the compounds (ml), demineralized water is 130

Summary for this compound, CO[C@@H]1[C@H](OC(=O)/C=C/c2ccc(Cl)c(NCCO)c2)CC[C@]2(CO2)[C@H]1[C@@]1(C)O[C@@H]1CC=C(C)C : The amount of solvent to dissolve 1 g of the compounds (ml), demineralized water is 137

Summary for this compound, CO[C@@H]1[C@H](OC(=O)NC(=O)CCl)CC[C@]2(CO2)[C@H]1[C@@]1(C)O[C@@H]1CC=C(C)C [TNP-470, O-chloroacetylcarbamoylfumagillol, reference compound] : The amount of solvent to dissolve 1 g of the compounds (ml), demineralized water is 876

* * *

# RUN DESCRIPTION: Chemical stability test (HPLC purity)
# DETAILS: HPLC, initial
Listed next: entries and their corresponding Initial Other peaks (%).
Could you give me the number in %? Just the number is fine.

Worked examples, 3 molecules total:
>>> recorded_number("CO[C@@H]1[C@H](OC(=O)/C=C/c2ccc(Cl)c(NCCO)c2)CC[C@]2(CO2)[C@H]1[C@@]1(C)O[C@@H]1CC=C(C)C [Example 7]")
0.6
>>> recorded_number("CO[C@@H]1[C@H](OC(=O)/C=C/c2ccc(OCCOCCOCCO)cc2)CC[C@]2(CO2)[C@H]1[C@@]1(C)O[C@@H]1CC=C(C)C [Example 27]")
1.6
>>> recorded_number("CO[C@@H]1[C@H](OC(=O)/C=C/c2ccc(NCCO)cc2)CC[C@]2(CO2)[C@H]1[C@@]1(C)O[C@@H]1CC=C(C)C [Example 5]")
0.8

Now for a further molecule.
Summary for this molecule, CO[C@@H]1[C@H](OC(=O)/C=C/c2cccc(NCCO)c2)CC[C@]2(CO2)[C@H]1[C@@]1(C)O[C@@H]1CC=C(C)C [Example 6] : Initial Other peaks (%) is 1.4

* * *

# RUN DESCRIPTION: Chemical stability test (HPLC purity)
# DETAILS: HPLC, initial
Listed next: entries and their corresponding Initial Parent peak (%).
Could you give me the number in %? Just the number is fine.

Worked examples, 5 molecules total:
>>> recorded_number("COc1cc(/C=C/C(=O)O[C@@H]2CC[C@]3(CO3)[C@@H]([C@@]3(C)O[C@@H]3CC=C(C)C)[C@@H]2OC)ccc1OCCO [Example 3]")
98.5
>>> recorded_number("CO[C@@H]1[C@H](OC(=O)/C=C/c2ccc(OCCOCCO)cc2)CC[C@]2(CO2)[C@H]1[C@@]1(C)O[C@@H]1CC=C(C)C [Example 12]")
99.5
>>> recorded_number("COc1ccc(/C=C/C(=O)O[C@@H]2CC[C@]3(CO3)[C@@H]([C@@]3(C)O[C@@H]3CC=C(C)C)[C@@H]2OC)cc1OCCO [Example 4]")
98.7
>>> recorded_number("COc1cc(C=CC(=O)OC2CCC3(CO3)C(C3(C)OC3CC=C(C)C)C2OC)cc(OC)c1OC (stereo not drawn) [CKD-731, O-(3,4,5-trimethoxycinnamoyl)fumagillol, reference compound]")
98.9
>>> recorded_number("CO[C@@H]1[C@H](OC(=O)/C=C/c2cccc(NCCO)c2)CC[C@]2(CO2)[C@H]1[C@@]1(C)O[C@@H]1CC=C(C)C [Example 6]")
98.6

Now for a further molecule.
Summary for this molecule, CO[C@@H]1[C@H](OC(=O)C=Cc2ccc(OCCN(C)C)cc2)CC[C@]2(CO2)[C@H]1[C@@]1(C)O[C@@H]1CC=C(C)C [CKD-732, reference compound] : Initial Parent peak (%) is 99.2
